- experimentDescription: Cytotoxicity in MT-4 cells (MTS)
- Assay type: cell-based
- appliedConditions: human
metricName: CC50 at 6 days

INSERT INTO assay_data (molecule, recordedmeasurement) VALUES
  ('C=C1C[C@@H](n2cc(C)c(=O)[nH]c2=O)O[C@H]1CO [Compound 26]', '> 32 µM'),
  ('C=C1C[C@@H](n2ccc(=O)[nH]c2=O)O[C@H]1CO [Compound 8]', '> 32 µM'),
  ('C=C1C[C@@H](n2ccc(N)nc2=O)O[C@H]1CO [Compound 10]', '> 32 µM');
